experiment: wn = mass fraction of the nth substance listed; settings: 313.15 K; 101 kPa; Liquid; Falling or rolling sphere viscometry; w1 = 0.3
// reported viscosity for each item listed
// note: answer is a bare numeric in mPa·s

Recorded viscosity, per entry:
CN(C)CCN(C)C [N,N,N',N'-tetramethyl-1,2-diaminoethane] + O : 2.705
NCCNCCN [di(2-aminoethyl)amine] + O : 2.582

## Input Param item = CN(C)CCCN(C)C [N,N,N',N'-tetramethyl-1,3-propanediamine] + O ; retrieve measured viscosity.
## Output 2.669

## Input Param item = CNCCCN [N-methyl-1,3-diaminopropane] + O ; retrieve measured viscosity.
## Output 2.391
